Values compiled from patent US6989397B1.

test system: SK-N-MC neuroepithelioma cells; experiment: cellular proliferation, MTT assay; format: cell-based, human; details: 90 h incubation, chelators 0.39–50 μM, read-out: IC50, inhibition of growth of SK-N-MC cells
OBSERVABLE: pIC50
// returns pIC50 (minus log10 of molar concentration), number only

# pIC50 measured on SK-N-MC neuroepithelioma cells for item O=C(NN=Cc1c(O)ccc2ccccc12)c1ccncc1 [Chelator 311, reference compound] = 5.70

# pIC50 measured on SK-N-MC neuroepithelioma cells for item O=C(NN=Cc1ccccn1)c1ccccc1 = 4.30

---

tested on: SK-N-MC neuroepithelioma cells; assay: 59Fe release from prelabelled cells (iron efflux); assay type: cell-based, human; settings: 3 hr labelling, 3 hr reincubation, ligands 50 μM, DFO 100 μM, FIG. 2A screening experiment
OBSERVABLE: release of cellular 59Fe (FIG. 2A)

Lab book: release of cellular 59Fe (FIG. 2A) of CC(=O)N(O)CCCCCNC(=O)CCC(=O)N(O)CCCCCNC(=O)CCC(=O)N(O)CCCCCN [DFO, desferrioxamine, reference compound] noted as 19%

---

test system: iron-regulatory proteins (IRPs); experiment: iron regulatory protein gel-retardation assay (IRP-RNA binding activity); format: cell-based, human; conditions: SK-N-MC cells, 20 hr incubation; chelators 25 μM, DFO 100 μM, FAC 100 μg/ml
OBSERVABLE: IRP-RNA binding activity compared to the control (FIG. 5)

>  <MOLECULE>
O=C(NN=Cc1ccccn1)c1ccncc1 [PCIH]

>  <TEST_RESULT>
little effect

$$$$
>  <MOLECULE>
O=C(NN=Cc1c(O)ccc2ccccc12)c1ccncc1 [Chelator 311, reference compound]

>  <TEST_RESULT>
marked increase

$$$$
>  <MOLECULE>
O=C(NN=Cc1ccco1)c1ccncc1 [FIH]

>  <TEST_RESULT>
decreased

$$$$
>  <MOLECULE>
O=C(NN=Cc1ccccn1)c1ccc(O)cc1 [PCHH]

>  <TEST_RESULT>
decreased

$$$$
>  <MOLECULE>
O=C(NN=Cc1ccccn1)c1cccs1 [PCTH]

>  <TEST_RESULT>
marked increase

$$$$

Lab book: IRP-RNA binding activity compared to the control (FIG. 5) of Nc1ccc(C(=O)NN=Cc2ccccn2)cc1 [PCAH] noted as decreased

Lab book: IRP-RNA binding activity compared to the control (FIG. 5) of O=C(NN=Cc1ccccn1)c1ccccc1 [PCBH] noted as marked increase

Lab book: IRP-RNA binding activity compared to the control (FIG. 5) of Cc1ncc(CO)c(C=NNC(=O)c2ccncc2)c1O [PIH, pyridoxal isonicotinoyl hydrazone, reference compound] noted as little effect
